Reported IC50 against Apoptosis regulator Bcl-2 (Homo sapiens, UniProt P10415), gathered from multiple publications, appears below.

Return IC50 measured with Apoptosis regulator Bcl-2 (Homo sapiens, UniProt P10415) given this compound: CCCCN(CCCC)C(=O)c1cc(C)n(-c2ccc(NC(=O)Cc3ccc(OC)c(Br)c3)cc2C(=O)N2Cc3ccccc3C[C@H]2CO)n1
23.3 to 30.8 nM

Continuing:
IC50 of CCCCN(CCCC)C(=O)c1cc(C)n(-c2ccc(NC(=O)c3ccc(Oc4ccc(F)cc4)cc3)cc2C(=O)N2Cc3ccccc3C[C@H]2CO)n1 on Apoptosis regulator Bcl-2 (Homo sapiens, UniProt P10415)?
> 16000 nM

Given the entry CCCCN(CCCC)C(=O)c1nn(-c2ccc(C(=O)NS(=O)(=O)c3cc(Br)c4c(c3)c(Br)cn4CC)cc2C(=O)N2CCc3ccccc3C2)c(C)c1Cl , what IC50 was observed with Apoptosis regulator Bcl-2 (Homo sapiens, UniProt P10415)?
4.19 nM

Reported IC50 for Apoptosis regulator Bcl-2 (Homo sapiens, UniProt P10415), given O=C(Nc1cc(S(=O)(=O)c2ccc(Cl)cc2)ccc1Cl)c1ccc(O)c(O)c1O ?
≤ 1000 nM

Write down the reported IC50 of CC(C)(C)c1ccccc1S(=O)(=O)c1ccc(NC(=O)c2cc(S(=O)(=O)NCCCCc3ccccc3)cc(O)c2O)cc1 , test system: Apoptosis regulator Bcl-2 (Homo sapiens, UniProt P10415).
> 1000 nM

Item CCCCN(CCCC)C(=O)c1cc(C)n(-c2ccc(NC(=O)C(OC)c3ccccc3)cc2C(=O)N2Cc3ccccc3C[C@H]2CO)n1 (stereo partly drawn) with Apoptosis regulator Bcl-2 (Homo sapiens, UniProt P10415) - IC50?
56.8 to 58.8 nM

Which IC50 is reported with Apoptosis regulator Bcl-2 (Homo sapiens, UniProt P10415) for this entry: CCCCN(CCCC)C(=O)c1cc(C)n(-c2ccc(NC(=O)c3ccc(Oc4ccccc4)nc3)cc2C(=O)N2Cc3ccccc3C[C@H]2CO)n1 ?
1970 to 2070 nM

Checklist item: IC50 tested on Apoptosis regulator Bcl-2 (Homo sapiens, UniProt P10415), entry CN(C)CC[C@H](CSc1ccccc1)Nc1ccc(S(=O)(=O)Nc2ncnc3c2CCN(C2CCN(Cc4ccccc4-c4cccc(Cl)c4)CC2)C3)cc1S(=O)(=O)C(F)(F)F , value?
49 nM

Notebook entry, Apoptosis regulator Bcl-2 (Homo sapiens, UniProt P10415) assay: IC50 of O=C(NS(=O)(=O)c1ccc(NCC2CCOCC2)c([N+](=O)[O-])c1)c1ccc(N2CCN(C[C@@H]3Cc4ccccc4CN3C(=O)c3ccc(Cl)s3)CC2)cc1Oc1cnc2[nH]ccc2c1 = ?
> 50 nM
